Source of measurements: patent US20180244611A1

SYSTEM_TESTED: F508delCFTR (Homo sapiens, UniProt P13569, DEL508-508)
Construct: expressed in transfected cells; host or cells: CFBE41o- human lung-derived epithelial cells (CFBE41o-F508delCFTR-HRP), doxycycline-inducible
Sequence (P13569 with tags, fused parts or gaps DEL508-508): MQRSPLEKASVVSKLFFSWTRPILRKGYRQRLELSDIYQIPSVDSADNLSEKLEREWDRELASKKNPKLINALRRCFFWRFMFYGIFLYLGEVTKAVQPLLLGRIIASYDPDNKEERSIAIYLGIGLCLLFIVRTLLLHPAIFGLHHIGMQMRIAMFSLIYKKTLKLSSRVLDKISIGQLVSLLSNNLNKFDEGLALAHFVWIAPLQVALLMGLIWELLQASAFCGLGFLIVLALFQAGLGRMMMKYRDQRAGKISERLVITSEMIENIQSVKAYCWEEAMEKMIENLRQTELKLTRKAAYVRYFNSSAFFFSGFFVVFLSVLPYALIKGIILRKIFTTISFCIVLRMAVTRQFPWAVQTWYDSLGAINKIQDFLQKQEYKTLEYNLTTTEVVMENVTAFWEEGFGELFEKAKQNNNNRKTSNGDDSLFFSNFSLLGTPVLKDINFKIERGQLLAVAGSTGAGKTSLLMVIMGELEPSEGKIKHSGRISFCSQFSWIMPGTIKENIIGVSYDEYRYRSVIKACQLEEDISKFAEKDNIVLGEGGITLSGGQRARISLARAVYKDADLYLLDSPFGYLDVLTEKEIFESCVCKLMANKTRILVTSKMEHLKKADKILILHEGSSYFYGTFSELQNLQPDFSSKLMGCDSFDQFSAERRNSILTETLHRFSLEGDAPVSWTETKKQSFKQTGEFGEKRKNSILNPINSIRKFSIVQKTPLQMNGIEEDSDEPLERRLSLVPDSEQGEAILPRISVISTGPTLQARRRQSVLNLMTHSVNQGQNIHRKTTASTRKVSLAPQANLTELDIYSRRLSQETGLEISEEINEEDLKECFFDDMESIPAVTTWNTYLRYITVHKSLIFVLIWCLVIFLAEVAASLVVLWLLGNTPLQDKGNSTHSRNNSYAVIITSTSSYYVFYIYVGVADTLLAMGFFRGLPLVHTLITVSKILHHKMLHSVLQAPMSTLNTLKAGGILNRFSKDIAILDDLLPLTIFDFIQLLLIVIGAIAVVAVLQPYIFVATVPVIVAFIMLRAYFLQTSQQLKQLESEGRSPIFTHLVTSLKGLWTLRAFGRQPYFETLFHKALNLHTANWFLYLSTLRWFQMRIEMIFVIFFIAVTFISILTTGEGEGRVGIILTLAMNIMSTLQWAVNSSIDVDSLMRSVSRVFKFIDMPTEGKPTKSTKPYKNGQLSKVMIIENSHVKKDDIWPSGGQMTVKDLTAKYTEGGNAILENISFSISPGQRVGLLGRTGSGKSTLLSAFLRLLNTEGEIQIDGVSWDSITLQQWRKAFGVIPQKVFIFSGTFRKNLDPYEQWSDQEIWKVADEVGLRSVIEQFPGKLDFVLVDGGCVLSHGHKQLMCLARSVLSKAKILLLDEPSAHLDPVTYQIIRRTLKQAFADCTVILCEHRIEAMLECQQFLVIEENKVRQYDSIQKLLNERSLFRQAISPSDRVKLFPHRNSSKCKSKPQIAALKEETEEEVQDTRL
PROTOCOL_SUMMARY: Cell Surface Expression-Horse Radish Peroxidase (CSE-HRP) assay, test compound with co-corrector
Format: cell-based
CONDITION_PARAMETERS: with 2 μM co-corrector
// reported EC50 per item

Worked cases, answers included:
• O=C(NS(=O)(=O)c1cccc2ccccc12)C1CCc2c(Br)ccc(OCC3CC3)c21 (stereo not shown) [Example I-55] = < 3 µM
• COc1ccc(Br)c2c1[C@H](C(=O)NS(=O)(=O)c1cccc3ccccc13)CC2 [Example I-52] = < 3 µM
• COc1cccc2c1CCC2C(=O)NS(=O)(=O)c1cc(-c2nc3c([nH]2)c(=O)n(C)c(=O)n3C)ccc1Cl (stereo not shown) [III-58] = 3 to 10 µM

Give the measured EC50 of CCC1(C(=O)NS(=O)(=O)c2cccc3cccc(O)c23)CCc2c(Cl)cccc21 (stereo not shown) [Example I-31] .
< 3 µM
